Tested on: A549
assayRemarks: NCI tumour cell line growth inhibition, 48 h
Active and inactive are the calls of the source. Rule as the data show it: active = GI50 up to about 1.1 µM and inactive = higher.
Outcomes: true (active), false (inactive)

compound: NC1CSc2ccccc2NC1=O (configuration not stated)
group: false

compound: Nc1[nH]c(=O)[nH]c(=O)c1Cc1cccc(Cl)c1
group: false

compound: Cc1cccc2cc3cccc(C(=O)NCCN(C)C)c3nc12
group: true

compound: Cc1c(-c2ccccn2)ccc2ccccc12
group: false

compound: CC(C)c1cccc(=O)c(O)c1
group: false

compound: CCOC(=O)C1C(=O)C(C(=O)OCC)C(c2ccccc2)N(C)C1c1ccccc1 (configuration not stated)
group: false

compound: O=C(c1ccco1)N(C(=S)OC12CC3CC(CC(C3)C1)C2)c1ccccc1
group: false

----------
Test system: RPMI-8226
assayRemarks: NCI tumour cell line growth inhibition, 48 h
Active and inactive are the calls of the source. Cut-off read from the data, not from the text of the source: active = GI50 up to about 1.1 µM and inactive = higher. Where a SMILES comes first, the peptide text is derived from it. [ ]: non-standard residue; d: D form. The star is where a group is joined. Phe(4-NO2) = N[CH](Cc1ccc([N+](=O)[O-])cc1)C(=O)O; Boc = CC(C)(C)OC(=O)*; OtBu = CC(C)(C)O*
Outcomes: True (active), False (inactive)

compound: NCC(O)CNC(=O)c1ccc(-c2ccc(-c3ccc(C(=O)NCC(O)CN)cc3)o2)cc1 (stereo not drawn)
group: False
--
compound: COC1OC(CBr)C(OC(=O)c2ccccc2)C(OS(=O)(=O)c2ccc(C)cc2)C1Br (stereo not drawn)
group: False
--
compound: O=c1c2cc([N+](=O)[O-])cnc2sn1-c1ccc([N+](=O)[O-])cc1
group: False
--
compound: COc1ccc2c(c1OC)C(C=C(c1ccccc1)c1ccccc1)CN(C)C2 (stereo not drawn)
group: False
--
compound: Cc1ccc(/N=N/N(C)C(C)C(O)Cc2ccccc2)cc1 (stereo not drawn)
group: False
--
compound: Cn1cccc1/C=C/c1cc(Br)c(/C=C/c2cccn2C)cc1Br
group: False
--
compound: CC(=O)N(CCc1ccccc1)C(C)(C#N)c1ccccc1 (stereo not drawn)
group: False
--
compound: COC1(OC)CC2OC1C1N=NN(C(=O)OC(C)(C)C)C21 (stereo not drawn)
group: False
--
compound: C=C1CC[C@@H]2C(C)(C)C(O)CCC2(C)C1COc1ccc2ccc(=O)oc2c1 (stereo partly drawn)
group: False
--
compound: C[C@H](CCC1=NCCN1)[C@H]1CC[C@H]2[C@@H]3CC[C@@H]4C[C@H](O)CC[C@]4(C)[C@H]3C[C@H](O)[C@]12C
group: False
--
compound: COc1ccc(C(=O)C(C(=O)CCC(=O)Nc2cccc(Cl)c2)c2ccc(OC)cc2)cc1 (stereo not drawn)
group: False
--
compound: CC(C)(C)N(Cc1ccoc1)C(=O)/C=C\[S+]([O-])c1ccccc1 (stereo not drawn)
group: False
--
compound: CC(=O)OCC(OC(C)=O)C(OC(C)=O)C(OC(C)=O)C(C=NN(C(C)=O)S(=O)(=O)c1ccc(/C=C2\NC(=O)N(C)C2=O)cc1)OC(C)=O (stereo not drawn)
group: False
--
compound: CCOc1ccc(/N=N/c2c(-c3ccccc3)nn(C(=O)CC(=O)Nc3ccccc3Cl)c2-c2ccccc2)cc1
group: False
--
compound: Cc1ccccc1NC(=O)CC1C(=O)Nc2ccccc2[S+]1[O-] (stereo not drawn)
group: False
--
compound: O=c1c2cc([N+](=O)[O-])ccc2[nH]n1Cc1ccccn1
group: False
--
compound: C=C=C(C)[Si](C)(C)C
group: False
--
compound: O=[N+]([O-])c1nccn1CCCNc1c2ccccc2[n+]([O-])c2ccccc12
group: False
--
compound: C[N+](C)([O-])C12CC3CC(CC(C3)C1)C2
group: False
--
compound: CC(=O)Oc1cc(-c2oc3cc(OC(C)=O)c(C4OC(CO)C(O)C(O)C4O)c(OC(C)=O)c3c(=O)c2O)c(OC(C)=O)cc1O (stereo not drawn)
group: False
--
compound: NC(=S)NNCC(=O)CC(O)(C(F)(F)F)C(F)(F)Cl (stereo not drawn)
group: False
--
compound: CN(C)c1ncnc2c1Cc1ccccc1C(=O)N2C
group: False
--
compound: COc1ccc(C(=O)C(c2ccc(OC)cc2)C2(O)C(=O)Nc3ccccc32)cc1 (stereo not drawn)
group: False
--
compound: c1ccc(SCCP(CCP(c2ccccc2)c2ccccc2)c2ccccc2)cc1 (stereo not drawn)
group: False
--
compound: Fc1ccc(OCc2nc3cc(C(F)(F)F)ccc3nc2-c2ccccc2)cc1
group: False
--
compound: CC(=O)O[C@@H]1[C@H](OC2CCCCC2(c2ccccc2)c2ccccc2)O[N+]([O-])=CC12CCCCC2 (stereo partly drawn)
group: False
--
compound: CC(=O)NC(CCC(=O)OC(C)(C)C)C(=O)NC(CCC(=O)OC(C)(C)C)C(=O)NC(Cc1ccc([N+](=O)[O-])cc1)C(=O)NC(CCCCNC(=O)OC(C)(C)C)C(=O)NC(CCCCNC(=O)OC(C)(C)C)C(=O)NCC(=O)O (stereo not drawn) (Ac-E(OtBu)E(OtBu)[Phe(4-NO2)]K(Boc)K(Boc)G-OH; configuration not given here)
group: False
--
compound: COc1cc(C2OC[C@@H]3C(=O)OC[C@H]23)cc(O)c1OC (stereo partly drawn)
group: False
--
compound: COC12c3ccccc3-c3ccccc3C1[C@H]1C(=O)OC(=O)[C@H]12 (stereo partly drawn)
group: False
--
compound: C[C@H]1[C@@H](c2ccccc2)O[B-](c2ccccc2)(c2ccccc2)[N+]1(C)C
group: False
--
compound: O=S1(=O)C[C@H](NCc2ccccc2)[C@H](NCc2ccccc2)C1
group: False
--
compound: O=c1[nH]c(=O)n(C2CC(O)C(CO)O2)cc1/N=N/NCCc1ccccc1 (stereo not drawn)
group: False
--
compound: C[n+]1cc2cc(O)c(O)cc2c2ccc3cc(O)c(O)cc3c21.c1ccncc1
group: False
--
compound: CCOC(=O)c1nc2ccc(C(F)(F)F)cc2nc1Nc1cc(OC)c(OC)c(OC)c1
group: False
--
compound: Cc1c/c(=N/NC(=O)c2ccncc2)n2nc(N)sc2n1
group: False
--
compound: COc1cccc2c(N)c3cccc(C(=O)NCCN(C)C)c3nc12
group: True
--
compound: COC(C)(C)[C@@H]1CCCN1C1=C(C)C(=O)OC1
group: False
--
compound: O=C1CC2(CCC(O)(c3ccc(Cl)cc3)C(C(=O)c3ccc(Cl)cc3)C2)C(=O)c2ccccc2N1 (stereo not drawn)
group: False

----------
System: Hs-578T
assayRemarks: NCI tumour cell line growth inhibition, 48 h
Calls of active or inactive are those of the source. Rule as the data show it: active = GI50 up to about 1.1 µM and inactive = higher.
Outcomes: 1 for active, -1 for inactive

compound: N=C(N)N/N=C/c1cc(Cl)cc(Cl)c1O
group: -1
//
compound: Cc1c(-c2ccccn2)ccc2ccccc12
group: -1
//
compound: Cc1cc(C)c(-n2[nH]c(=O)n(C)c2=O)c(C)c1
group: -1
//
compound: CC(=O)OCC1OC(n2c3c(cc(C#N)c2=S)CCC3)C(OC(C)=O)C(OC(C)=O)C1OC(C)=O (stereo unspecified)
group: -1
//
compound: O=C(Nc1ccccc1F)c1cc2ccc(O)cc2o/c1=N\c1cccc(F)c1
group: -1
//
compound: CC(C)(C)C(=O)Oc1ccc(/C=C/C(=O)c2ccc(OC(=O)C(C)(C)C)cc2)cc1
group: -1
//
compound: CCc1nc(N)c2nc(-c3cccs3)oc2n1
group: -1
//
compound: CCOP(=O)(OCC)C(C)(CC)NC (stereo unspecified)
group: -1
//
compound: COc1cccc2c1C(=O)c1c(O)c3c(c(O)c1C2=O)C[C@@](O)(C(=O)CO)C[C@@H]3OC1CC(N(C)C)C(O)C(C)O1 (stereo partly specified)
group: 1
//
compound: NCCCCNOCCCN
group: -1
//
compound: CCOC(=O)Nc1c(C#N)[n+]([O-])c2cc(Cl)c(Cl)cc2[n+]1[O-]
group: -1

----------
Parameter: GI50. Scope: all listed entries.
Test system: A549
assayRemarks: NCI tumour cell line growth inhibition, 48 h
Activity calls are given as the source filed them. No stated cut-off is given here; in the data, active = GI50 up to about 1.1 µM and inactive = higher.

compound: CN(/N=C/c1ccc(Cl)cc1)C1=NCCCCN1
testedOn: A549
GI50: 93.8 µM (inactive)
--
compound: NS(=O)(=O)c1nnc(NC(=O)/C=C/C(=O)O)s1
testedOn: A549
GI50: > 100 µM (inactive)
--
compound: CC(=O)Oc1cc(-c2oc3cc(OC(C)=O)c(C4OC(CO)C(O)C(O)C4O)c(OC(C)=O)c3c(=O)c2O)c(OC(C)=O)cc1O (stereo unspecified)
testedOn: A549
GI50: > 100 µM (inactive)
--
compound: CC1=C2C(=O)OCC23C=COC3(C)O1 (stereo unspecified)
testedOn: A549
GI50: 66.7 µM (inactive)
--
compound: NCCSc1nc(-c2ccccc2)c(-c2ccccc2)o1
testedOn: A549
GI50: > 100 µM (inactive)
--
compound: CCN(CC)/C(Sc1ccccc1)=C(\C(Cl)=C(Cl)Cl)[N+](=O)[O-]
testedOn: A549
GI50: 21.7 µM (inactive)
--
compound: NC1=C(N2CCCCC2)C(=O)NC2=N/C(=C\c3ccccc3)C(=O)N21
testedOn: A549
GI50: > 100 µM (inactive)
--
compound: CC(SC(=S)N1CCCCC1)C(=O)Nc1nnc(-c2ccc(Cl)cc2)o1 (stereo unspecified)
testedOn: A549
GI50: 30.3 µM (inactive)
--
compound: O=C1OC(=O)c2c1nc1ccccc1c2-c1ccccc1
testedOn: A549
GI50: > 100 µM (inactive)
--
compound: S=C(Nc1ccc2c(c1)oc1ccccc12)c1cccnc1
testedOn: A549
GI50: 37.6 µM (inactive)
--
compound: CCOP(=O)(OCC)C(C)(CC)NC (stereo unspecified)
testedOn: A549
GI50: > 100 µM (inactive)

The reported numbers originate from ChEMBL document CHEMBL1201862.
